- target or system: D(2) dopamine receptor (Homo sapiens) (UniProt P14416)
- Sequence (P14416 whole entry, looked up): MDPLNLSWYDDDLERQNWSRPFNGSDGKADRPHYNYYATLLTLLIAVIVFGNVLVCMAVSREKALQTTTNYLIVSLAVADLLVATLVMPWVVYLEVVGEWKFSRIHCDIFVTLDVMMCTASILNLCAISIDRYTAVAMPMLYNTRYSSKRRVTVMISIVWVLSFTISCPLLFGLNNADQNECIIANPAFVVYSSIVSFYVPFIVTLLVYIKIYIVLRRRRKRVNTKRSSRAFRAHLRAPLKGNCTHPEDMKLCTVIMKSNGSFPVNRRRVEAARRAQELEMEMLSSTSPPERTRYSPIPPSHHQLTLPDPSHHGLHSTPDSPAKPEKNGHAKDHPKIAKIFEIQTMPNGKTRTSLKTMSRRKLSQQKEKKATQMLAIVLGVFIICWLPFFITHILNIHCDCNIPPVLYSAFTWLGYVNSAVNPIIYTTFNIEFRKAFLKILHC
- assay name: HTS Assay for Allosteric Antagonists of the Human D2 Dopamine Receptor: Primary Screen for Antagonists
- measurement parameters: HEK293 TREx D2 cells, calcium flux, dopamine EC80; at 10 µM
The whole screen tested about 340,000 compounds, of which about 6,900 (2%) were called active. Cut-off read from the data, not from the text of the source: active = inhibition above about 30%; inactive = below that, where a call was filed. What follows is part of a selection rich in actives, with near analogues and random picks from the rest.
Your reply should match one of these outcome classes. Y = active, N = inactive

Answered examples (8):
>>> cat("CC1(C)NC(=O)N(CC(=O)N2CCN(S(=O)(=O)c3ccccc3F)CC2)C1=O")
"N"
>>> cat("COc1ccc(S(=O)(=O)NCC(c2ccc(C)cc2)N2CCN(C)CC2)cc1OC (centres undefined)")
"N"
>>> cat("O=C(CSc1nnc(Nc2ccccc2F)s1)NC1CCCC1")
"N"
>>> cat("CC(O)c1nc2c(c(=O)n(C)c(=O)n2C)n1C (centres undefined)")
"N"
>>> cat("CCN1CCN(C(=O)N[C@@H](C(=O)N[C@@H]2C(=O)N3C(C(=O)O)=C(CSc4nnnn4C)CS[C@H]23)c2ccc(O)cc2)C(=O)C1=O")
"N"
>>> cat("CCCN(C(=O)c1nc2nccc(C)n2n1)c1c(N)n(Cc2ccccc2)c(=O)[nH]c1=O")
"N"
>>> cat("CC1CN(C2CCCCC2)c2nc3c(c(=O)n(C)c(=O)n3C)n2C1 (centres undefined)")
"Y"
>>> cat("O=C(NCCC1CCCCN1S(=O)(=O)c1ccc(Cl)cc1)C(=O)NCc1ccco1 (centres undefined)")
"N"

Now turn to the next molecule.
Task: Which outcome did this test record for the molecule CN(C(=O)COC(=O)c1ccc(Br)o1)c1c(N)n(Cc2ccccc2)c(=O)[nH]c1=O ?
Output: N

---

- target or system: D(2) dopamine receptor (Homo sapiens)
- assay name: HTS Assay for Allosteric Antagonists of the Human D2 Dopamine Receptor: Primary Screen for Antagonists
- measurement parameters: HEK293 TREx D2 cells, calcium flux, dopamine EC80; at 10 µM
Hit rate of the full screen: of about 340,000 compounds, about 6,900 (2%) were called active. Cut-off read from the data, not from the text of the source: active = inhibition above about 30%; inactive = below that, where a call was filed. What follows is part of a selection rich in actives, with near analogues and random picks from the rest.
Your reply should match one of these outcome classes. true (1) = active, false (0) = inactive

Task: Which outcome did this test record for the compound COc1ccc([N+](=O)[O-])cc1N(CC(O)Cn1nnc2ccccc21)S(=O)(=O)c1ccc(C)cc1 (stereo unspecified) ?
Output: false (0)

Task: Which outcome did this test record for the compound Cc1ccc(S(=O)(=O)N(CC(O)CN2C(=O)NC(C)(C)C2=O)c2cccc([N+](=O)[O-])c2)cc1 (stereo unspecified) ?
Output: true (1)

Task: Which outcome did this test record for the compound O=C(Cc1cccs1)N(CC1CCCO1)C1(C(=O)NC2CCCCC2)CCCCC1 (stereo unspecified) ?
Output: true (1)

---

Reported inhibition values follow for various molecules
- target or system: D(2) dopamine receptor (Homo sapiens) (UniProt P14416)
- assay name: HTS Assay for Allosteric Antagonists of the Human D2 Dopamine Receptor: Primary Screen for Antagonists
- measurement parameters: HEK293 TREx D2 cells, calcium flux, dopamine EC80; at 10 µM; stronger effect = higher value
Out of some 340,000 compounds screened, about 6,900 (2%) were called active. Shown is part of a subset that was picked to be rich in actives.
Numbers only; they are read as %.

Worked examples follow.
>>> observed_measurement("O=S(=O)(c1ccccc1)c1nc(-c2ccccc2)oc1NCCCN1CCOCC1")
47.7
>>> observed_measurement("CSc1ccccc1NC(=O)COC(=O)CCCOc1ccc(C)cc1")
5.07
>>> observed_measurement("CC(=O)C1=C(C)NC(=O)NC1c1cc(Br)ccc1OCC#N (configuration not stated)")
-0.972
>>> observed_measurement("O=C(CN1CCN(S(=O)(=O)c2cccc(Cl)c2)CC1)N1CCCCC1")
14

Field inhibition (D(2) dopamine receptor (Homo sapiens) (UniProt P14416)), entry Cc1ccc(-c2nn(-c3ccccc3)cc2C(=O)NCCCN2CCCC2=O)cc1 : -11.6

---

- target or system: D(2) dopamine receptor (Homo sapiens) (UniProt P14416)
- assay name: HTS Assay for Allosteric Antagonists of the Human D2 Dopamine Receptor: Primary Screen for Antagonists
- measurement parameters: HEK293 TREx D2 cells, calcium flux, dopamine EC80; at 10 µM; stronger effect = higher value
Hit rate of the full screen: of about 340,000 compounds, about 6,900 (2%) were called active. The list comes from a sample in which actives are over-represented; it also holds close analogues and randomly drawn compounds.
measurement name: inhibition (%)
Numbers only; they are read as %.

Worked examples follow.
>>> observed_measurement("COc1ccc(C)cc1S(=O)(=O)Nc1cc2c3c(c1)CCC(=O)N3CCC2")
6.3
>>> observed_measurement("COc1ccc(CCC(C)N2CCc3ccccc3C2)cc1 (stereo not drawn)")
55
>>> observed_measurement("Cc1cc(C(=O)CCC(=O)NNC(=O)c2ccccc2O)c(C)s1")
19.4
>>> observed_measurement("CC1(C)CC(=O)C=C(c2cccc3c2Oc2ccccc2S3)C1")
2.71
>>> observed_measurement("CCCCn1c(N)c(N(CCC(C)C)C(=O)COC(=O)c2cccnc2OCC)c(=O)[nH]c1=O")
-12.2
>>> observed_measurement("CN(C)S(=O)(=O)c1ccc(C(=O)NCC2(N3CCOCC3)CCCCC2)cc1")
8.22
>>> observed_measurement("CCOc1ccc(-c2nc(N)ncc2-c2ccccc2OC)c(O)c1")
34.9
>>> observed_measurement("CC(=O)C[C@@H](O)CC(=O)[C@H]1OC(=O)CCCCCCc2ccccc21")
3.89
>>> observed_measurement("C=C(C)COc1ccc(-c2nc(N)ncc2-c2ccccc2OC)c(O)c1")
-11.9
>>> observed_measurement("CCN(c1ccccc1)S(=O)(=O)c1cc(C(=O)NCc2ccccn2)ccc1C")
-6.91

Documented inhibition of Cc1nn(Cc2ccccc2)c(C)c1CNC(=O)c1ccc(F)c(S(=O)(=O)N2CCOCC2)c1 : 5.64

Documented inhibition of CCCCn1c(N)c(N(CCOC)C(=O)c2cccc(OCc3ccccc3)c2)c(=O)[nH]c1=O : -3.21

Documented inhibition of COc1ccc(NC(=O)C(=O)NCC(c2ccco2)N2CCc3ccccc3C2)cc1 (stereo not drawn) : -3.07

Documented inhibition of CC(OC(=O)c1ccc(S(=O)(=O)N2CCOCC2)cc1)c1ccccc1 (stereo not drawn) : -6.07

---

- target or system: D(2) dopamine receptor (Homo sapiens)
- assay name: HTS Assay for Allosteric Antagonists of the Human D2 Dopamine Receptor: Primary Screen for Antagonists
- measurement parameters: HEK293 TREx D2 cells, calcium flux, dopamine EC80; at 10 µM; stronger effect = higher value
The whole screen tested about 340,000 compounds, of which about 6,900 (2%) were called active. Many of the other results were omitted from the sample, so actives are more common in it than they were.
Reported inhibition values follow for various compounds
Numbers only; they are read as %.

Documented inhibition of CCN1CCCC1Cn1cnc2c([nH]c3cc(OC)ccc32)c1=O (configuration not stated) : 24.3

Documented inhibition of O=C(NCCCN1CCOCC1)c1ccc([N+](=O)[O-])cc1[N+](=O)[O-] : 48.1

Documented inhibition of O=C(/C=C/c1cccc([N+](=O)[O-])c1)OCC(=O)N1CCOCC1 : 13.9

---

- target or system: D(2) dopamine receptor (Homo sapiens) (UniProt P14416)
- assay name: HTS Assay for Allosteric Antagonists of the Human D2 Dopamine Receptor: Primary Screen for Antagonists
- measurement parameters: HEK293 TREx D2 cells, calcium flux, dopamine EC80; at 10 µM; stronger effect = higher value
In all, about 340,000 compounds went through this assay and about 6,900 (2%) were called active. The list comes from a sample in which actives are over-represented; it also holds close analogues and randomly drawn compounds.
Reported inhibition values follow for various compounds
Numbers only; they are read as %.

Worked examples follow.
>>> observed_measurement("COc1cc(C(CCN2CCN(c3ccccc3)CC2)c2c(OC)cc(OC)c3ccc(=O)oc23)cc(OC)c1OC (centres undefined)")
23
>>> observed_measurement("CN(Cc1ccccc1)c1nc2c(c(=O)[nH]c(=O)n2C)n1CCSc1nc2ccccc2[nH]1")
29.2
>>> observed_measurement("CCN(CC)CCC(c1ccc2c(c1)OCO2)c1c(OC)cc(OC)c2c(-c3ccccc3)cc(=O)oc12 (centres undefined)")
13.4

Documented inhibition of CC(C)(C)OC(=O)N[C@H](C(=O)OC(C)(C)C)c1ccc(Br)cc1 : -2.43

Documented inhibition of CCOC(=O)Cn1c(CN(Cc2ccccc2)Cc2ccccc2)nc2c1c(=O)[nH]c(=O)n2C : -7.46

Documented inhibition of Cn1c(=O)[nH]c(=O)c2c1nc(N(CCO)Cc1ccccc1)n2Cc1ccccc1Cl : 73.5

Documented inhibition of COCCN(C(=O)CC1CCCCC1)c1c(N)n(CC(C)C)c(=O)[nH]c1=O : -47.9

Documented inhibition of COc1cc(OC)c2ccc(=O)oc2c1C(CCN1CCN(c2ccccc2)CC1)c1ccc2c(c1)OCO2 (centres undefined) : 94

Documented inhibition of COc1ccccc1NS(=O)(=O)c1ccc(C(=O)N2CCN(c3ccccc3O)CC2)cc1 : -20.7

Origin of measurements: PubChem BioAssay AID485344
